These data points were gathered from patent US9540338B2.

The entries below come with measured melting point values attached.
Counter-ions that a name gives are not always drawn.

INSERT INTO measurements (molecule, reported_property, result) VALUES
  ('Cn1cccc1CCNC(=O)/C=C/c1ccccc1F', 'melting point', '93 to 94 °C'),
  ('O=C(/C=C/c1ccccc1F)NCCc1ccncc1', 'melting point', '95 to 96 °C'),
  ('O=C(/C=C/c1cccc(F)c1F)NCCCN1CCOCC1', 'melting point', '97 to 99 °C'),
  ('O=C(/C=C/c1ccccc1F)NCCN1CCNCC1 (as salt: hydrochloride) [Compound 16, dihydrochloride]', 'melting point', '212 to 213 °C'),
  ('O=C(/C=C/c1ccccc1F)NCCn1ccnc1-c1ccccc1', 'melting point', '163 to 164 °C'),
  ('O=C(/C=C/c1ccccc1F)NCCn1ccnn1', 'melting point', '110 to 112 °C'),
  ('O=C(/C=C/c1ccc(F)cc1)NCCCN1CCOCC1', 'melting point', '88 to 89 °C'),
  ('Cl.O=C(/C=C/c1ccc(C(=O)O)cc1)NCCn1ccnc1', 'melting point', '237 to 238 °C');

Any idea what its melting point is? The molecule is O=C(/C=C/c1ccc(F)cc1)Nc1ccc(N2CCOCC2)cc1
223 to 224 °C

Any idea what its melting point is? The molecule is Cl.O=C(/C=C/c1ccccc1F)NCCc1cccnc1
116 to 117 °C

Any idea what its melting point is? The molecule is Cl.N=C(N)NCCCCNC(=O)/C=C/c1ccccc1F
154 to 156 °C

Any idea what its melting point is? The molecule is COc1ccc(CCNC(=O)/C=C/c2ccccc2F)cc1
123 to 124 °C

Any idea what its melting point is? The molecule is N#C/C(=C\c1ccc(F)cc1)C(=O)NCCCN1CCOCC1
110 to 111 °C

Any idea what its melting point is? The molecule is Cc1nccn1CCNC(=O)/C=C/c1ccccc1F
127 to 129 °C

Any idea what its melting point is? The molecule is Cl.O=C(/C=C/c1ccccc1F)NCCCN1CCOCC1
153 to 154 °C

Any idea what its melting point is? The molecule is O=C(/C=C/c1ccc(C(F)(F)F)cc1F)NCCCN1CCOCC1
102 to 103 °C

Any idea what its melting point is? The molecule is O=C(/C=C/c1ccccc1F)NCc1cccc(N2CCSCC2)c1
154 to 155 °C

Any idea what its melting point is? The molecule is O=C(/C=C/c1ccccc1F)NCCn1cnc2ccccc21
143 to 145 °C
